target.or.system: UniProt:P06239
Sequence (P06239 whole entry): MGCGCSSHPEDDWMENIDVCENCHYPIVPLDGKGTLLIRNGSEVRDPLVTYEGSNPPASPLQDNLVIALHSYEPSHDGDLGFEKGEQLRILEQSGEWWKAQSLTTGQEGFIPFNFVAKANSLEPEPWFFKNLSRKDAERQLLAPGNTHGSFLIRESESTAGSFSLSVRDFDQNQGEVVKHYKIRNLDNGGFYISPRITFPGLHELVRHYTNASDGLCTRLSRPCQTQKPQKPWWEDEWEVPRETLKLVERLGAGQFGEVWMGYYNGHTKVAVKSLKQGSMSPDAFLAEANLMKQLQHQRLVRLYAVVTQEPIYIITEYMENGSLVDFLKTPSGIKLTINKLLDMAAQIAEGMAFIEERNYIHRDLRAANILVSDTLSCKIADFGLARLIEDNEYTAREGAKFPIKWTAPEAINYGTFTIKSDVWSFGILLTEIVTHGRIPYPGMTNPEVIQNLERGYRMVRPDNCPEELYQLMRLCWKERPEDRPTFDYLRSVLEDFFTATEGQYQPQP
measure.name: Kd

Answered examples (4):
COc1cc2c(N3CCN(C(=O)Nc4ccc(OC(C)C)cc4)CC3)ncnc2cc1OCCCN1CCCCC1 : Not Active
Oc1c2ccccc2c2c3c(cccc13)N=N2 : Not Active
CC[C@H](CO)Nc1nc(NCc2ccccc2)c2ncn(C(C)C)c2n1 : Not Active
C[S+]([O-])c1ccc(-c2nc(-c3ccc(F)cc3)c(-c3ccncc3)[nH]2)cc1 (stereo not given) : Not Active

QUERY: Report Kd for Oc1ccc(-c2nc(-c3ccc(F)cc3)c(-c3ccncc3)[nH]2)cc1 please.
RESULT: Not Active

###

target.or.system: Serine/threonine-protein kinase 17A (Homo sapiens, UniProt Q9UEE5)
Sequence (Q9UEE5 whole entry): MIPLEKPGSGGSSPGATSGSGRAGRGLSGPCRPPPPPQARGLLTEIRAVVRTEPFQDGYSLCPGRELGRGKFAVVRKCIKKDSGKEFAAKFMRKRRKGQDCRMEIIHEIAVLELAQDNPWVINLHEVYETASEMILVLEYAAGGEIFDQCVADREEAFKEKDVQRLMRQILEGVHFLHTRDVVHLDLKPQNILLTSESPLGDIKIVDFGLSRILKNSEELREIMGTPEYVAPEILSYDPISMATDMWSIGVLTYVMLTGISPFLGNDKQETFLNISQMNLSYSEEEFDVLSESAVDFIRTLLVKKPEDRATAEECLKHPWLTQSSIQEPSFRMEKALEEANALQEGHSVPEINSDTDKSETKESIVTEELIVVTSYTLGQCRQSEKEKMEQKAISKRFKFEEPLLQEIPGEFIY
measure.name: pKd
Answers are plain numbers, as −log10 of the molar value.

QUERY: Need pKd, item Oc1c2ccccc2c2c3c(cccc13)N=N2
RESULT: 5.68

###

target.or.system: Serine/threonine-protein kinase PLK4 (Homo sapiens)
Sequence (O00444 whole entry): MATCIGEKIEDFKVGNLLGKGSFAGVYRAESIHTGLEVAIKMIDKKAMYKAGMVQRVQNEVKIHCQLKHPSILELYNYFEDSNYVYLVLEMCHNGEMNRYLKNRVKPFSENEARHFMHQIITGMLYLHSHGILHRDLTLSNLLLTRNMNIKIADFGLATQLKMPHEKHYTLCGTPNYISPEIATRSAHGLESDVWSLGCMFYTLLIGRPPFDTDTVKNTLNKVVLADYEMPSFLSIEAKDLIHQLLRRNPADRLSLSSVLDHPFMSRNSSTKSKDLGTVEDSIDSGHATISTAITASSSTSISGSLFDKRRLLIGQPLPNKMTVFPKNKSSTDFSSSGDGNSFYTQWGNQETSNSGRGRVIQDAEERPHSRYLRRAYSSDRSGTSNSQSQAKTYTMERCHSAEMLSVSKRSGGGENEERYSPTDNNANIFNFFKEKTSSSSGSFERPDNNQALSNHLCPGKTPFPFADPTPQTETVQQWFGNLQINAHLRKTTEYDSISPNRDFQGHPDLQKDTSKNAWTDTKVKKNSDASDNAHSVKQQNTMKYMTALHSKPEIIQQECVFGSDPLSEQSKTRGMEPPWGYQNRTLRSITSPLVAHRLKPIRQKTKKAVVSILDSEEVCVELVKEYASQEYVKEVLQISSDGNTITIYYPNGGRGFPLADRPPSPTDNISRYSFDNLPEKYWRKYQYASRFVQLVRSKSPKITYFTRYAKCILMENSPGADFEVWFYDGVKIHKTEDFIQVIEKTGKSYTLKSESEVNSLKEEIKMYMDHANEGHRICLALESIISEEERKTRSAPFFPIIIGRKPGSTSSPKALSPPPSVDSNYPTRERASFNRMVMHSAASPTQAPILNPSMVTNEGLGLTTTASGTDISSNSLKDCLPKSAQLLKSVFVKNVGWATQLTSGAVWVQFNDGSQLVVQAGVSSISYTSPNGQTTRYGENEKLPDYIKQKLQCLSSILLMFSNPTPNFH
measure.name: Kd
Enter the number, and then the unit.

QUERY: Requested read-out Kd, target or system Serine/threonine-protein kinase PLK4 (Homo sapiens), entry Oc1c2ccccc2c2c3c(cccc13)N=N2
RESULT: 0.77 µM

###

target.or.system: Mitogen-activated protein kinase 10 (Homo sapiens, UniProt P53779)
Sequence (P53779 whole entry): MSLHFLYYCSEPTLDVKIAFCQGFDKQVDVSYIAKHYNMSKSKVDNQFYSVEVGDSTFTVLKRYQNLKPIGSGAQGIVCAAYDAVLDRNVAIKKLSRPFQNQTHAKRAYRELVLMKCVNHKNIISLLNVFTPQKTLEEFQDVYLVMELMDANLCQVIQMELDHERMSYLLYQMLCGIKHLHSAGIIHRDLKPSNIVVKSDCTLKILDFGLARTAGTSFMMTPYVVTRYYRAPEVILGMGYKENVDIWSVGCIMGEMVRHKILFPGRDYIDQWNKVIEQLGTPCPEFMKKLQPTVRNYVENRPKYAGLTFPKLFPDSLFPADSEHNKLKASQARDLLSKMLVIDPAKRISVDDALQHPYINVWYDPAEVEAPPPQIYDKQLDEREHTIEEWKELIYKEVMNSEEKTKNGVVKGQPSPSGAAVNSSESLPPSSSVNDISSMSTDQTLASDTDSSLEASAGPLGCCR
measure.name: Kd (nM)
Give bare numbers, in nM.

QUERY: Item under review: Oc1ccc(-c2nc(-c3ccc(F)cc3)c(-c3ccncc3)[nH]2)cc1 . Reported Kd?
RESULT: 51

###

Record type: pKd measurement. Applies to: Mitogen-activated protein kinase 12 (Homo sapiens)
Numbers only, as −log10 of the molar value.

C[S+]([O-])c1ccc(-c2nc(-c3ccc(F)cc3)c(-c3ccncc3)[nH]2)cc1 (configuration not stated) : 5.77

From here, focus on the item given below.
QUERY: Quick one: pKd for Oc1c2ccccc2c2c3c(cccc13)N=N2 ?
RESULT: 5.62

###

target.or.system: Serine/threonine-protein kinase Nek6 (Homo sapiens)
Sequence (Q9HC98 whole entry): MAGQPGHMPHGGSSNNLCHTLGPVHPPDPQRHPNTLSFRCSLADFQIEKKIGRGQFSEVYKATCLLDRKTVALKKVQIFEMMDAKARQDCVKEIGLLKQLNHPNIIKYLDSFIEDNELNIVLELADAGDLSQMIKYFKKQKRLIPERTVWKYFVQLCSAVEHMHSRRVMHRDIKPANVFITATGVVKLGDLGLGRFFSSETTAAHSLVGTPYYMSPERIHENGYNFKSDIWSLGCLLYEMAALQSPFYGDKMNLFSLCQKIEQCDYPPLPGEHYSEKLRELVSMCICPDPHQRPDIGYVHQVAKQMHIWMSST
measure.name: Kd

// solved cases for Kd follow
C#Cc1cccc(Nc2ncnc3cc(OCCOC)c(OCCOC)cc23)c1 : Not Active
Oc1c2ccccc2c2c3c(cccc13)N=N2 : Not Active
COc1cc2c(N3CCN(C(=O)Nc4ccc(OC(C)C)cc4)CC3)ncnc2cc1OCCCN1CCCCC1 : Not Active
O=c1ncn2nc(Sc3ccc(F)cc3F)ccc2c1-c1c(Cl)cccc1Cl : Not Active
C[S+]([O-])c1ccc(-c2nc(-c3ccc(F)cc3)c(-c3ccncc3)[nH]2)cc1 (centres undefined) : Not Active

Report Kd for each item below.
1. Cc1ccc(NC(=O)c2ccc(CN3CCN(C)CC3)cc2)cc1Nc1nccc(-c2cccnc2)n1
2. CC[C@H](CO)Nc1nc(NCc2ccccc2)c2ncn(C(C)C)c2n1
3. CCOc1cc2ncc(C#N)c(Nc3ccc(F)c(Cl)c3)c2cc1NC(=O)/C=C/CN(C)C
4. Oc1ccc(-c2nc(-c3ccc(F)cc3)c(-c3ccncc3)[nH]2)cc1

RESULT:
["Not Active", "Not Active", "Not Active", "Not Active"]

###

Angiopoietin-1 receptor (Homo sapiens, UniProt Q02763): reported Kd for various compounds.
Sequence (Q02763 whole entry): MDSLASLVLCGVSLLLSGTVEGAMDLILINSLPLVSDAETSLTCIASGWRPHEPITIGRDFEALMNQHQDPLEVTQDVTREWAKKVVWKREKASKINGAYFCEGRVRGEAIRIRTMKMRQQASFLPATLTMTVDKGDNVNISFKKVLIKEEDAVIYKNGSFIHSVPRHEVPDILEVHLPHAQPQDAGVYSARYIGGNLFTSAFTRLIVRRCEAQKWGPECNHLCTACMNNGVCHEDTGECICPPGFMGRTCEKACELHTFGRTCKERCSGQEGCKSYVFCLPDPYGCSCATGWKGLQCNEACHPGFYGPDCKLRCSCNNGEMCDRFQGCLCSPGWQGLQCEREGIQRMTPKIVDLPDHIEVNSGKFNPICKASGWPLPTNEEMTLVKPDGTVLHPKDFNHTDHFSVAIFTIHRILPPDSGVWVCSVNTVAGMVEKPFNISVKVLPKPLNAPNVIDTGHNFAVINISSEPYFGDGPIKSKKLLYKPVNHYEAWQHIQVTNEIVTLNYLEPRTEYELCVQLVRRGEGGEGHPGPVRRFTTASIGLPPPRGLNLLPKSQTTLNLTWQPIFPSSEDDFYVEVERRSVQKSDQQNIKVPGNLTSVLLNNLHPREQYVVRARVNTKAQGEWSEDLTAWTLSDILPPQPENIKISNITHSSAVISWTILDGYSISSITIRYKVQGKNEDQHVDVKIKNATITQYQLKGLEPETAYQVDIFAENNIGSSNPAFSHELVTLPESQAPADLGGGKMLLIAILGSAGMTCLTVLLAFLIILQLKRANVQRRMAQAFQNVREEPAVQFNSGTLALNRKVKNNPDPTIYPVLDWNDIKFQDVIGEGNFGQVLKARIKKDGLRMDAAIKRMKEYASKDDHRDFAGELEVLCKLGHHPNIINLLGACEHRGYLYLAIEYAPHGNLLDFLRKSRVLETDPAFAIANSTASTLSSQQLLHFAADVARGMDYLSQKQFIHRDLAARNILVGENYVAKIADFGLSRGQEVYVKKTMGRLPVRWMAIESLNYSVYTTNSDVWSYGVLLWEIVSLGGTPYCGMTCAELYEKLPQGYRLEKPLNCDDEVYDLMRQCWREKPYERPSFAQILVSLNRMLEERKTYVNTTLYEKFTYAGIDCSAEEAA
measure.name: Kd

CC[C@H](CO)Nc1nc(NCc2ccccc2)c2ncn(C(C)C)c2n1 [SELICICLIB] : Not Active
C#Cc1cccc(Nc2ncnc3cc(OCCOC)c(OCCOC)cc23)c1 [ERLOTINIB] : Not Active
COc1cc2c(N3CCN(C(=O)Nc4ccc(OC(C)C)cc4)CC3)ncnc2cc1OCCCN1CCCCC1 [TANDUTINIB] : Not Active
C[S+]([O-])c1ccc(-c2nc(-c3ccc(F)cc3)c(-c3ccncc3)[nH]2)cc1 (centres undefined) [SB-203580] : Not Active

###

Record type: Kd measurement. Applies to: TRAF2 and NCK-interacting protein kinase (Homo sapiens)
One number for each entry, in µM.

Oc1ccc(-c2nc(-c3ccc(F)cc3)c(-c3ccncc3)[nH]2)cc1 : 10

# context switch: different molecule, same Kd
QUERY: Entry Oc1c2ccccc2c2c3c(cccc13)N=N2 has what Kd?
RESULT: 0.48

###

target.or.system: Calcium/calmodulin-dependent protein kinase type II subunit beta (Homo sapiens, UniProt Q13554)
Sequence (Q13554 whole entry): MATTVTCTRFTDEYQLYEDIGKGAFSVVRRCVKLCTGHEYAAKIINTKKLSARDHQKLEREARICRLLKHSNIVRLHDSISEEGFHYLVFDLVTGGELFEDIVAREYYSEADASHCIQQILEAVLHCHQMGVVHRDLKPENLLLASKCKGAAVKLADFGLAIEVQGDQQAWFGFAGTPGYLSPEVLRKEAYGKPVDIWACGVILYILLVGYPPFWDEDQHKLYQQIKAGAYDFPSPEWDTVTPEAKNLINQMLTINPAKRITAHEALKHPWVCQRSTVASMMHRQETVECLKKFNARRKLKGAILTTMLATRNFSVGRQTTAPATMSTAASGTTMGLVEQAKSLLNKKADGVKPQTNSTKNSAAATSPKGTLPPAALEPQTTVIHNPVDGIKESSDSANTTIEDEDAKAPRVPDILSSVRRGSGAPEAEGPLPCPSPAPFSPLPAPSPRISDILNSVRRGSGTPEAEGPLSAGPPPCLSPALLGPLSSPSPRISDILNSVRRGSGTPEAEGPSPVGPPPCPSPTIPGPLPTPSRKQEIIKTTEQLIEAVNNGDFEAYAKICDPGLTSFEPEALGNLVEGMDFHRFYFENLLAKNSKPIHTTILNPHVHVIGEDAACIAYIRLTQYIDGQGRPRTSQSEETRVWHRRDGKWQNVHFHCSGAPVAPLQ
measure.name: Kd

These recorded examples may help you get a feel for the data.
Oc1ccc(-c2nc(-c3ccc(F)cc3)c(-c3ccncc3)[nH]2)cc1 [SB-202190] : Not Active
C#Cc1cccc(Nc2ncnc3cc(OCCOC)c(OCCOC)cc23)c1 [ERLOTINIB] : Not Active
CCOc1cc2ncc(C#N)c(Nc3ccc(F)c(Cl)c3)c2cc1NC(=O)/C=C/CN(C)C [PELITINIB] : Not Active
Cc1ccc(NC(=O)c2ccc(CN3CCN(C)CC3)cc2)cc1Nc1nccc(-c2cccnc2)n1 [IMATINIB] : Not Active
CC[C@H](CO)Nc1nc(NCc2ccccc2)c2ncn(C(C)C)c2n1 [SELICICLIB] : Not Active

I have 3 molecules here; please give me Kd for each one.
1. C[S+]([O-])c1ccc(-c2nc(-c3ccc(F)cc3)c(-c3ccncc3)[nH]2)cc1 (stereo not drawn) [SB-203580]
2. COc1cc2c(N3CCN(C(=O)Nc4ccc(OC(C)C)cc4)CC3)ncnc2cc1OCCCN1CCCCC1 [TANDUTINIB]
3. O=c1ncn2nc(Sc3ccc(F)cc3F)ccc2c1-c1c(Cl)cccc1Cl [NEFLAMAPIMOD]

RESULT:
1. Not Active
2. Not Active
3. Not Active

###

target.or.system: Proto-oncogene tyrosine-protein kinase Src (Homo sapiens)
Sequence (P12931 2-536 limits assumed): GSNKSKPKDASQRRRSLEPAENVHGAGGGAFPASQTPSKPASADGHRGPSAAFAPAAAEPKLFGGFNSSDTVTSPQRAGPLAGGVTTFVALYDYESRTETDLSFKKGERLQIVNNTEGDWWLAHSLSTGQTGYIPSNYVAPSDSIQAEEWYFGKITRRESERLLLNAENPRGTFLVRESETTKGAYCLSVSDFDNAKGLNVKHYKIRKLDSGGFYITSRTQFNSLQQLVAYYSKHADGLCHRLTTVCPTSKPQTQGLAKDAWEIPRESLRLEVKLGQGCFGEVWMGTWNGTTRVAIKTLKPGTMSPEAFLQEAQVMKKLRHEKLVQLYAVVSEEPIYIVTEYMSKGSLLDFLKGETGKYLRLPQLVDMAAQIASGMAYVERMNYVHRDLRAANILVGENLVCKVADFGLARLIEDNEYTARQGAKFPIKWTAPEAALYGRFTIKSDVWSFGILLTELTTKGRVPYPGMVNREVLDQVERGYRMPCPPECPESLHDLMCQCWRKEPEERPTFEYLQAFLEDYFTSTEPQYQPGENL
measurement.setup: read-out: Kd
measure.name: Kd (nM)
Numbers only, in nM.

QUERY: Give the measured Kd of CCOc1cc2ncc(C#N)c(Nc3ccc(F)c(Cl)c3)c2cc1NC(=O)/C=C/CN(C)C .
RESULT: 120

###

target.or.system: BMP-2-inducible protein kinase (Homo sapiens, UniProt Q9NSY1)
Sequence (Q9NSY1 whole entry): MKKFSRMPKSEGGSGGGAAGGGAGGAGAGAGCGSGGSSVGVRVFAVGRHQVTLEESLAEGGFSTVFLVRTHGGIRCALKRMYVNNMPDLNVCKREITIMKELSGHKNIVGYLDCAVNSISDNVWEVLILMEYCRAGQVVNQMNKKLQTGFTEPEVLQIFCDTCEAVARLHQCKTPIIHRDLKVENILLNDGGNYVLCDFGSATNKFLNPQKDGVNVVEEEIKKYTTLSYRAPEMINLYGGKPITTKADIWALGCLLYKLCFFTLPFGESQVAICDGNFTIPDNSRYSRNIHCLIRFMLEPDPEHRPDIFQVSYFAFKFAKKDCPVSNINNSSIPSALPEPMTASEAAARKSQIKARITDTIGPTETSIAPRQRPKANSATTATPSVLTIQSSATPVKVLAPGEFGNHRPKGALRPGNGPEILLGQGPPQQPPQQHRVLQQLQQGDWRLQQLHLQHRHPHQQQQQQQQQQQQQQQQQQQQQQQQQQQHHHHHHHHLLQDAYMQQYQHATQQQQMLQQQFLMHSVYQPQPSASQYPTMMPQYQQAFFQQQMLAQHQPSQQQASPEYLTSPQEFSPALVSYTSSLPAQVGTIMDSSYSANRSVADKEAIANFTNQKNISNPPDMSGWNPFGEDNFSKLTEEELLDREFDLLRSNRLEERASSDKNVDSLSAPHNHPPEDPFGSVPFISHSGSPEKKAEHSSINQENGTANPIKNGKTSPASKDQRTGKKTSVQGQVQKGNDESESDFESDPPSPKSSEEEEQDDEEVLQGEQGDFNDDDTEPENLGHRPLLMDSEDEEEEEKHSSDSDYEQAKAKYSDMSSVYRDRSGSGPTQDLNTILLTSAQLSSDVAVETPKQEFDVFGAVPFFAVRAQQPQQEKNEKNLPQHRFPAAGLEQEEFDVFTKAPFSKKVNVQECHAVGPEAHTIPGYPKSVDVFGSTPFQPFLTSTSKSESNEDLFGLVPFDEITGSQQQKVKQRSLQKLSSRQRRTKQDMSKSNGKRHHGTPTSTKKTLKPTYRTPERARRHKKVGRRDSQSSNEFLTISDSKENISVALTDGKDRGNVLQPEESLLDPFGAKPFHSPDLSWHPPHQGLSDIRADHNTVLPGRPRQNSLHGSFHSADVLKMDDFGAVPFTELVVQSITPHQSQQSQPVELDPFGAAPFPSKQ
measure.name: pKd
One number for each entry, as −log10 of the molar value.

QUERY: For Oc1c2ccccc2c2c3c(cccc13)N=N2 [SP-600125] , what is its reported pKd?
RESULT: 7.60
